- Tested on: PC-3 prostate cancer cells
- Assay Info: In vivo anti-tumor experiment, PC-3 human tumor xenograft
- Parameters: species or system BALB/c nude mice
- Condition Parameters: 200 mg/kg orally once daily, 6 days a week for two weeks; day 14
Outcome Measure: T/C (%) Prostate Cancer
Report as a plain number; the unit % is understood.

Record COC(=O)Oc1cccc2c1nc(C(F)F)n2-c1nc(N2CCOCC2)cc(N2CCOC(C)(C)C2)n1 [Compound 14] , field T/C (%) Prostate Cancer: 47.3

Record COc1cccc2c1nc(C(F)F)n2-c1nc(N2CCOCC2)cc(N2CCOC(C)(C)C2)n1 [Compound 5] , field T/C (%) Prostate Cancer: 39.1

Record CC(=O)Oc1cccc2c1nc(C(F)F)n2-c1nc(N2CCOCC2)cc(N2C[C@@H](C)O[C@@H](C)C2)n1 [Compound 13] , field T/C (%) Prostate Cancer: 65.4

Record C[C@@H]1CN(c2nc(N3CCOCC3)nc(-n3c(C(F)F)nc4c(O)cccc43)n2)C[C@H](C)O1 [Compound 11] , field T/C (%) Prostate Cancer: 66.5

Record CC1(C)COCCN1c1cc(N2CCOCC2)nc(-n2c(C(F)F)nc3c(O)cccc32)n1 [Compound 10] , field T/C (%) Prostate Cancer: 38.1

Record CCOC(=O)Oc1cccc2c1nc(C(F)F)n2-c1nc(N2CCOCC2)cc(N2C[C@@H](C)O[C@@H](C)C2)n1 [Compound 15] , field T/C (%) Prostate Cancer: 47.5

Record OCC1CCCN1c1nc(N2CCOCC2)nc(-n2c(C(F)F)nc3c(O)cccc32)n1 (centres unmarked) [Compound 9] , field T/C (%) Prostate Cancer: 31.8

Record COc1cccc2c1nc(C(F)F)n2-c1nc(N2CCOCC2)cc(N2C[C@@H](C)O[C@@H](C)C2)n1 [Compound 6] , field T/C (%) Prostate Cancer: 16.2

* * *

Kindly supply the reported GI50 values for the records listed here.
- Test system: Hepatoma HepG2 cells
- Assay Info: In vitro anti-tumor experiment, growth inhibition of HepG2 cells
- Type: cell-based
- Condition Parameters: Homo sapiens; HepG2, 72 hours incubation
Report as a plain number; the unit nM is understood.

Record C[C@@H]1CO[C@@H](C)CN1c1nc(N2CCOCC2)nc(-n2c(C(F)F)nc3ccccc32)n1 (relative stereo) , field GI50: 1120

Record FC(F)c1nc2ccccc2n1-c1nc(N2CCOCC2)nc(N2CCOCC2)n1 , field GI50: 1150

Record CC1(C)CN(c2nc(N3CCOCC3)nc(-n3c(C(F)F)nc4c(Cl)cc(N)cc43)n2)CCO1 , field GI50: 260

Record OCC1CCCN1c1nc(N2CCOCC2)nc(-n2c(C(F)F)nc3c(O)cccc32)n1 (stereo not shown) , field GI50: 150

Record Oc1cccc2c1nc(C(F)F)n2-c1nc(N2CCOCC2)nc(N2CCOCC2)n1 , field GI50: 120

Record CC1(C)CN(c2nc(N3CCOCC3)nc(-n3c(C(F)F)nc4ccccc43)n2)CCO1 , field GI50: 1500

Record COc1cccc2c1nc(C(F)F)n2-c1nc(N2CCOCC2)nc(N2CCOCC2)n1 , field GI50: 340

* * *

Kindly supply the reported melting point values for the records listed here.

Record COc1cccc2c1nc(C(F)F)n2-c1nc(N2CCOCC2)cc(N2CCOC(C)(C)C2)n1 , field melting point: 160 to 162 °C

Record C[C@@H]1CO[C@@H](C)CN1c1nc(N2CCOCC2)nc(-n2c(C(F)F)nc3ccccc32)n1 (relative stereo) , field melting point: 166 to 169 °C

Record CC1(C)CN(c2nc(N3CCOCC3)nc(-n3c(C(F)F)nc4c(Cl)cc(N)cc43)n2)CCO1 , field melting point: 238 °C (dec.)

Record CC1(C)CN(c2nc(N3CCOCC3)nc(-n3c(C(F)F)nc4ccccc43)n2)CCO1 , field melting point: 176 to 178 °C

Record C[C@@H]1CN(c2nc(N3CCOCC3)nc(-n3c(C(F)F)nc4c(O)cccc43)n2)C[C@H](C)O1 , field melting point: 214 to 215 °C
